Assay: chemical genetic growth profiling, strain panel (AID 1159580);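 further: tested at 20 µM; growth read once vehicle control cultures reached saturation at 30 °C; lower values mean less growth of the strain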
Conditions: S. cerevisiae deletion strains, growth OD, locus YMR058W, strain fet3
Among all 5,500 compounds or so, about 2,000 (36%) were called active. Not shown: some 18% with an inconclusive outcome. No stated cut-off is given here; in the data, active means normalized growth mostly below about 0.91 (no sharp cut-off); inconclusive means no clear call, values can overlap the other calls; inactive means mostly above about 0.92. This is one part of the list.
Possible outcomes: active, inactive

>  <compound>
NC(=O)CS(=O)C(c1ccccc1)c1ccccc1 (configuration not stated)

>  <class>
inactive

$$$$
>  <compound>
CC1OC(O[C@H]2/C=C/C=C/C=C/C=C/C=C/C=C/C=C/[C@H](C)[C@@H](O)[C@@H](C)[C@H](C)OC(=O)CC(O)CC(O)CCC(O)C(O)CC(O)C[C@]3(O)C[C@H](O)C(C(=O)O)C(C2)O3)C(O)[C@H](N)C1O (some centres not stated)

>  <class>
active

$$$$
>  <compound>
CC1[C@H](C)OC(=O)CC(O)CC(O)CC(O)CCC(O)C(O)C[C@]2(O)CC(O)C(C(=O)O)C(CC(OC3O[C@H](C)[C@@H](O)[C@H](N)[C@@H]3O)/C=C/C=C/C=C/C=C/CC/C=C/C=C/[C@H](C)[C@H]1O)O2 (some centres not stated)

>  <class>
active

$$$$
>  <compound>
Nc1nc(F)nc2c1ncn2[C@@H]1O[C@H](COP(=O)(O)O)[C@@H](O)[C@@H]1O

>  <class>
inactive

$$$$
>  <compound>
CC(=O)Oc1c2c(c(CC=C(C)C)c3c1C(=O)C1=C[C@@H]4CC5C(C)(C)OC(C/C=C(\C)C(=O)O)(C4=O)[C@@]15O3)OC(C)(CCC=C(C)C)C=C2 (some centres not stated)

>  <class>
inactive

$$$$
>  <compound>
CN(C)C(=O)Oc1ccc[n+](C)c1

>  <class>
inactive

$$$$
>  <compound>
COc1ccc(-c2oc3cc(OC)c(OC)c(OC)c3c(=O)c2OC)cc1OC

>  <class>
inactive

$$$$
>  <compound>
O=c1cccc2n1CC1CC2CN2CCCC[C@@H]12 (some centres not stated)

>  <class>
inactive

$$$$
>  <compound>
CC(C)=CC1C(C(=O)OCc2cccc(Oc3ccccc3)c2)C1(C)C (configuration not stated)

>  <class>
inactive

$$$$
>  <compound>
COC(=O)C1=COC(C)C2CN3CCC4(C(=O)Nc5ccccc54)C3CC12 (configuration not stated)

>  <class>
inactive

$$$$
>  <compound>
COc1cc2c(cc1OC)C1(O)C(=O)c3ccc(O)c(C(=O)O)c3OC1CO2 (configuration not stated)

>  <class>
inactive

$$$$
>  <compound>
COc1ccc2c(c1)OCC(Cc1ccc(OC)c(OC(C)=O)c1)C2=O (configuration not stated)

>  <class>
inactive

$$$$

* * *

Test: chemical genetic growth profiling, strain panel (AID 1159580);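 further: tested at 20 µM; growth read once vehicle control cultures reached saturation at 30 °C; lower values mean less growth of the strain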
Conditions: S. cerevisiae deletion strains, growth OD, locus YLR039C, strain RIC1
The campaign covered roughly 5,500 compounds. About 2,000 (36%) were called active. About 18% were inconclusive and are not listed. No stated cut-off is given here; in the data, active means normalized growth mostly below about 0.91 (no sharp cut-off); inconclusive means no clear call, values can overlap the other calls; inactive means mostly above about 0.92. The list shows a part of the results.
Possible outcomes: active, inactive

>  <compound>
O=S(=O)(NCc1ccc(F)cc1F)c1cccc(C(F)(F)F)c1

>  <class>
inactive

$$$$
>  <compound>
Clc1ccc(Oc2ccnc3cc(Cl)ccc23)cc1

>  <class>
active

$$$$
>  <compound>
Cc1oncc1C(=O)Nc1ccc(C(F)(F)F)cc1

>  <class>
inactive

$$$$
>  <compound>
O=c1oc2ccccc2cc1O

>  <class>
inactive

$$$$
>  <compound>
COc1ccc2oc3ccccc3c(=O)c2c1

>  <class>
active

$$$$
>  <compound>
COc1ccc(-c2nc(-c3ccc(-c4ccccc4)cc3)cs2)cc1

>  <class>
inactive

$$$$
>  <compound>
CN(C)CCC(c1ccccc1)c1ccccn1 (stereo not given)

>  <class>
inactive

$$$$
>  <compound>
OCc1nccn1Cc1ccc(Cl)cc1

>  <class>
inactive

$$$$
>  <compound>
O=C(O)COc1ccc(Cl)cc1Cl

>  <class>
inactive

$$$$
>  <compound>
CCC(C)C(=O)c1c(O)c(C)c2oc3c(C)c(O)c(C(=O)C(C)CC)c(O)c3c2c1O (stereo not given)

>  <class>
active

$$$$
>  <compound>
CN[C@@H]1C(OC2[C@H](O[C@H]3[C@H](O)[C@@H](O)[C@H](N=C(N)N)[C@@H](O)[C@@H]3N=C(N)N)OC(C)[C@]2(O)CO)OC(CO)C(O)C1O (stereo not given in full)

>  <class>
inactive

$$$$
>  <compound>
O=S(=O)(NCCc1ccncc1)c1cc(C(F)(F)F)cc(C(F)(F)F)c1

>  <class>
inactive

$$$$
>  <compound>
CCCCCCCCCCCCCC(=O)OC1C(C)C2(O)C(C=C(CO)CC3(O)C(=O)C(C)=CC32)C2C(C)(C)C12OC(C)=O (stereo not given)

>  <class>
inactive

$$$$
>  <compound>
CCCN(CCC)S(=O)(=O)c1ccc(C(=O)NCC(=O)O)cc1

>  <class>
inactive

$$$$
>  <compound>
O=C(Oc1ccc(Cl)cc1Cl)c1c(Cl)cccc1Cl

>  <class>
inactive

$$$$
>  <compound>
CCCn1c(=O)c2[nH]c(C3CCCC3)nc2n(CCC)c1=O

>  <class>
inactive

$$$$
>  <compound>
CN(C)C(=O)Oc1ccc[n+](C)c1

>  <class>
inactive

$$$$
>  <compound>
CCOC(=O)CNc1ccc(Cl)c(Cl)c1

>  <class>
inactive

$$$$
>  <compound>
O=C(O)C1CCCNC1 (stereo not given)

>  <class>
inactive

$$$$
>  <compound>
COc1ccc2oc(-c3ccccc3)c(OC)c(=O)c2c1

>  <class>
inactive

$$$$
>  <compound>
CCCNC(=O)NS(=O)(=O)c1ccc(Cl)cc1

>  <class>
inactive

$$$$
>  <compound>
CCOC(=O)C(c1ccccc1)C(Nc1ccc(Cl)c(Cl)c1)c1ccccn1 (stereo not given)

>  <class>
active

$$$$
>  <compound>
NC(=O)N[C@@H]1O[C@H](CO)[C@@H](O)[C@H](O)[C@H]1O

>  <class>
inactive

$$$$
>  <compound>
CC(C)=CC1C(C(=O)OCc2cccc(Oc3ccccc3)c2)C1(C)C (stereo not given)

>  <class>
inactive

$$$$
>  <compound>
FC(F)(F)c1cccc(N2CCNCC2)c1

>  <class>
inactive

$$$$

This collection of values is drawn from PubChem BioAssay AID1159580.
